Several reports have described IC50 for UniProt:P09237; a selection of those results is presented here.
Sequence (P09237 whole entry): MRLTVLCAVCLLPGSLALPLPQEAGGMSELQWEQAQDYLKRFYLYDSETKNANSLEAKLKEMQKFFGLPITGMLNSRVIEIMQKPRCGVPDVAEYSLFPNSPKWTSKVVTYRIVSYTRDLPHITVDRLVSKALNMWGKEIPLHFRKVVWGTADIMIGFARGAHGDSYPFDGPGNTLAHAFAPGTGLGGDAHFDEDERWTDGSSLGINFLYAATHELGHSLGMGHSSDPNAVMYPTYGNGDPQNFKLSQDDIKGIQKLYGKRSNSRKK
# value in nM; strip the unit string

| molecule | measure | value.observed |
| --- | --- | --- |
| CC(C)CC(C(=O)N[C@H]1CCCCCCCCCCNC1=O)[C@H](O)C(=O)NO (stereo not given in full) | IC50 | 200 |
| COc1ccc(S(=O)(=O)N2CCS(=O)(=O)CC2C(=O)NO)cc1 (stereo not given) | IC50 | 12800 |
| Cc1cc(COc2ccc(S(=O)(=O)N(C)C3(C(=O)NO)CN(C(=O)CC(C)C)C3)cc2)c2ccccc2n1 | IC50 | 210 |
| CCOC(=O)N1CCC(C(NS(=O)(=O)c2ccc(-c3ccc(OC)cc3)cc2)C(=O)O)CC1 (stereo not given) | IC50 | 9870 |
| CC1(C)SCCCN(S(=O)(=O)c2ccc(-c3ccccn3)s2)[C@H]1C(=O)NO | IC50 | 170 |

Query block: I'd like to know its IC50. The molecule in question is `CCCOc1ccc(S(=O)(=O)N2C/C(=N\OC)C[C@@H]2C(=O)NO)cc1`
Result block: 381

Query block: Please look up its IC50: `CNC(=O)[C@@H]1Cc2ccc(cc2)OCCC[C@H](C(=O)NO)[C@@H](CC(C)C)C(=O)N1`
Result block: 3

Query block: What does the record list as IC50 for `O=C1N[C@@H](CS)C(=O)N(CC2CCCCC2)[C@@H]1CC1CCCCC1` ?
Result block: 4800

Query block: Request the reported IC50 associated with `CC(C)C[C@H]1C(=O)N[C@H](C(=O)NCCN(C)C)Cc2ccc(cc2)OCCCC[C@@H]1C(=O)NO`
Result block: 4.2
